Where these numbers come from: PubChem BioAssay AID585

- assayed-system: Beta-lactamase (Escherichia coli (strain K12)) (UniProt P00811)
- Sequence (P00811 whole entry, looked up): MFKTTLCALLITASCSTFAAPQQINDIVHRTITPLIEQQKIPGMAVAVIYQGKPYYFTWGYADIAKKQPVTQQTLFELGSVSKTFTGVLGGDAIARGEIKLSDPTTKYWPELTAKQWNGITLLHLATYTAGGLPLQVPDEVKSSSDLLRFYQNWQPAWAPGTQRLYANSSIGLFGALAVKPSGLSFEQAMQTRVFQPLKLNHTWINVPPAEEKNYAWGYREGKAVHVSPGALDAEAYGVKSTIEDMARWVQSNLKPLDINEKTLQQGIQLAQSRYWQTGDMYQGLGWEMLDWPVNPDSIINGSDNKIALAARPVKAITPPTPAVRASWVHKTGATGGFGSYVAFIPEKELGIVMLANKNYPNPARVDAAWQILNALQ
- assay-explanation: Promiscuous and Specific Inhibitors of AmpC Beta-Lactamase (assay without detergent)
- experimental-context: AmpC nitrocefin hydrolysis, absorbance 480 nm, no detergent; series mostly up to 28.7 µM
Among all 71,000 compounds or so, about 1,300 (1.8%) were called active. Calls come from the whole dose curve. Only a selection was taken, and actives are over-represented in it overall.
Labels: active, inactive

- molecule: "Cc1ccc2nc(NC(=O)C3CCN(S(=O)(=O)c4ccc5c(c4)oc(=O)n5C)CC3)sc2c1"
  group: "active"
- molecule: "Cn1c(=O)[nH]c(=O)c2c1nc(CN(Cc1ccccc1)Cc1ccccc1)n2CCN1CCOCC1"
  group: "inactive"
- molecule: "CCOc1ccc(NC(=O)CCC(=O)n2nc(C)cc2C)cc1"
  group: "inactive"
- molecule: "CCOc1ccccc1N=C1NC(=O)CS1"
  group: "inactive"
- molecule: "C=CC(=C)CCC=C(C)C"
  group: "inactive"
- molecule: "CC(Sc1sc(=S)sc1SC(C)C(=O)O)C(=O)O (configuration not stated)"
  group: "inactive"
- molecule: "COc1ccc2[nH]cc(CCNc3nc(-c4cccc(NS(C)(=O)=O)c4)nc4ccccc34)c2c1"
  group: "inactive"
- molecule: "CC1=C2C(=O)OC(c3ccoc3)C2(C)CCC1 (configuration not stated)"
  group: "inactive"
- molecule: "c1ccc(Nc2nc(-c3ccncc3)cs2)nc1"
  group: "inactive"
- molecule: "O=S(=O)(Nc1ccccn1)c1ccc(Oc2ccccc2)cc1"
  group: "inactive"
- molecule: "O=C(Nc1nc2ccc(S(=O)(=O)N3CCCC3)cc2s1)C1CCCO1 (configuration not stated)"
  group: "inactive"
- molecule: "CC1(C)S[C@@H]2[C@@H](NC(=O)[C@@H](N)c3ccccc3)C(=O)N2[C@H]1C(=O)O"
  group: "active"
- molecule: "Cc1ccc(S(=O)(=O)N2CC(=O)Nc3ccccc32)cc1C"
  group: "inactive"
- molecule: "CC[N+](C)(CC)CCC[n+]1c(-c2ccccc2)c2cc(N)ccc2c2ccc(N)cc21"
  group: "inactive"
- molecule: "Cc1cc(NS(=O)(=O)c2ccccc2)no1"
  group: "active"
- molecule: "COc1ccc(CCN(C)CCN2C(=O)c3ccccc3C2=O)cc1OC"
  group: "inactive"
- molecule: "COC(=O)N1CCC2(CCCN(Cc3ccccc3OC)C2)CC1"
  group: "inactive"

###

- assayed-system: Beta-lactamase (Escherichia coli (strain K12)) (UniProt P00811)
- assay-explanation: Promiscuous and Specific Inhibitors of AmpC Beta-Lactamase (assay without detergent)
- experimental-context: AmpC nitrocefin hydrolysis, absorbance 480 nm, no detergent; series mostly up to 28.7 µM
- Description: NIH Molecular Libraries Screening Centers Network [MLSCN] NIH Chemical Genomics Center [NCGC] PI Name: Shoichet, Brian K. This aggregation profiling approach exploits the sensitivity of aggregate formation to detergent. Inhibition of b-lactamase is measured in the presence and absence of 0.01% Triton X-100. […] A screen of 1,030 compounds was performed in Brian Shoichet's lab in 96-well format. AmpC activity was measured by following the absorbance at 480 nm. […]
Hit rate of the full screen: of about 71,000 compounds, about 1,300 (1.8%) were called active. Calls follow the shape of the full dose curve. The full list was thinned out, with actives kept by preference.
Labels: t for active, f for inactive

- compound: "CC(CNC(=O)c1ccc(Br)o1)NC(=O)c1ccc(Br)o1 (configuration not stated)"
  assayed-system: "Beta-lactamase (Escherichia coli (strain K12)) (UniProt P00811)"
  group: "f"
- compound: "COc1ccc(C(=O)N(Cc2ccc(N(C)C)cc2)C2CCS(=O)(=O)C2)cc1 (configuration not stated)"
  assayed-system: "Beta-lactamase (Escherichia coli (strain K12)) (UniProt P00811)"
  group: "f"
- compound: "O=C(COC(=O)c1ccc(Oc2ccccc2)cc1)Nc1nnc(-c2ccccc2)o1"
  assayed-system: "Beta-lactamase (Escherichia coli (strain K12)) (UniProt P00811)"
  group: "t"
- compound: "CCn1c(=N)c(S(=O)(=O)c2ccc(F)cc2)cc2c(=O)n3ccccc3nc21"
  assayed-system: "Beta-lactamase (Escherichia coli (strain K12)) (UniProt P00811)"
  group: "f"
- compound: "CCOC(=O)N1CCC(Nc2c(NCCN3CCN(c4cccc(Cl)c4)CC3)c(=O)c2=O)CC1"
  assayed-system: "Beta-lactamase (Escherichia coli (strain K12)) (UniProt P00811)"
  group: "t"
- compound: "CC1(C)C(=O)Nc2ccccc2N1C(=O)COC(=O)Cn1cnc2ccccc2c1=O"
  assayed-system: "Beta-lactamase (Escherichia coli (strain K12)) (UniProt P00811)"
  group: "f"
- compound: "CCN(CC)C(=O)CSc1nnc(-c2cccc(OC)c2)o1"
  assayed-system: "Beta-lactamase (Escherichia coli (strain K12)) (UniProt P00811)"
  group: "f"
- compound: "Cc1nc(N2CCN(c3ncccn3)CC2)c2oc3ccccc3c2n1"
  assayed-system: "Beta-lactamase (Escherichia coli (strain K12)) (UniProt P00811)"
  group: "f"
- compound: "COc1cccc(NC(=O)CN(C)S(=O)(=O)c2ccc(C)cc2)c1"
  assayed-system: "Beta-lactamase (Escherichia coli (strain K12)) (UniProt P00811)"
  group: "f"
- compound: "COc1ccc(C)cc1S(=O)(=O)NC1CCCCC1"
  assayed-system: "Beta-lactamase (Escherichia coli (strain K12)) (UniProt P00811)"
  group: "f"
- compound: "CCOC(=O)N1CCC(NC(=O)CCc2cn(C)c3ccccc23)CC1"
  assayed-system: "Beta-lactamase (Escherichia coli (strain K12)) (UniProt P00811)"
  group: "f"
- compound: "O=C(C1=C(O)C(=O)N(c2ncccn2)C1c1cccs1)c1ccco1 (configuration not stated)"
  assayed-system: "Beta-lactamase (Escherichia coli (strain K12)) (UniProt P00811)"
  group: "f"
- compound: "COc1ccc(Cc2nnc(NC(=O)Cc3cccs3)s2)cc1"
  assayed-system: "Beta-lactamase (Escherichia coli (strain K12)) (UniProt P00811)"
  group: "t"
- compound: "COc1cccc(-c2nnc(NC(=O)c3ccc(S(=O)(=O)N(CC(C)C)CC(C)C)cc3)o2)c1"
  assayed-system: "Beta-lactamase (Escherichia coli (strain K12)) (UniProt P00811)"
  group: "t"
- compound: "CCOC(=O)N1CCC(Nc2c(NCCCN3CCN(c4ccc(OC)cc4)CC3)c(=O)c2=O)CC1"
  assayed-system: "Beta-lactamase (Escherichia coli (strain K12)) (UniProt P00811)"
  group: "f"
- compound: "COc1cccc2c(=O)n(CC(=O)N3CCCCCC3)ccc12"
  assayed-system: "Beta-lactamase (Escherichia coli (strain K12)) (UniProt P00811)"
  group: "f"
- compound: "CCc1nnc(NC(=O)CSc2nnc(Cc3ccccc3)n2-c2ccc(OC)cc2)s1"
  assayed-system: "Beta-lactamase (Escherichia coli (strain K12)) (UniProt P00811)"
  group: "f"
- compound: "CN(C)c1nc(N)nc(CSc2nnnn2-c2cccc3ccccc23)n1"
  assayed-system: "Beta-lactamase (Escherichia coli (strain K12)) (UniProt P00811)"
  group: "f"
- compound: "Cc1c2cn[nH]c(=O)c2c(C)n1Cc1ccc(F)cc1"
  assayed-system: "Beta-lactamase (Escherichia coli (strain K12)) (UniProt P00811)"
  group: "f"
- compound: "CCOC(=O)c1c(NC(=O)CCC(=O)NCc2ccco2)sc2c1CCCC2"
  assayed-system: "Beta-lactamase (Escherichia coli (strain K12)) (UniProt P00811)"
  group: "f"
- compound: "Cn1cccc1C(=O)NC(=O)COC(=O)Cc1coc2ccc3ccccc3c12"
  assayed-system: "Beta-lactamase (Escherichia coli (strain K12)) (UniProt P00811)"
  group: "t"
- compound: "C=C1c2cc(CC)ccc2NC(=O)N1c1ccc(C)cc1"
  assayed-system: "Beta-lactamase (Escherichia coli (strain K12)) (UniProt P00811)"
  group: "t"
